Target: adenosine A1 receptor (Homo sapiens)
Sequence (P30542 1-326): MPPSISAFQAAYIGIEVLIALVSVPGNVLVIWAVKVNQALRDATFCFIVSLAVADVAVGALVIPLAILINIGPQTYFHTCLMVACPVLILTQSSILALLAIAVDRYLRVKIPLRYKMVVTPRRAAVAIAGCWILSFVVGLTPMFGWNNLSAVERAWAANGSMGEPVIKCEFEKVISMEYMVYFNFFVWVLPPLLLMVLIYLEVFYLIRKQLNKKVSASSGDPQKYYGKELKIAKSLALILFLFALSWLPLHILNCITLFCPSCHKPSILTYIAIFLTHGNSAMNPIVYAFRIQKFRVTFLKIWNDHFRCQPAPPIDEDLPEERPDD
attribute.measured: IC50 (nM)
Give bare numbers, in nM.

Q) I have this compound here, CCCn1c(=O)c2nc(C3CC4CC3C3OC43)[nH]c2n(CCC)c1=O (stereo not shown) , and I need its recorded IC50.
A) 1.15
